Here, each record is paired with measured Kd data.
Target desc: T1, human CD20 (human, UniProt P11836 1-297)
T1 construct: whole, on cells; In all assays CD20 stood on cells; also called CD20 antigen
T1 sequence (looked up): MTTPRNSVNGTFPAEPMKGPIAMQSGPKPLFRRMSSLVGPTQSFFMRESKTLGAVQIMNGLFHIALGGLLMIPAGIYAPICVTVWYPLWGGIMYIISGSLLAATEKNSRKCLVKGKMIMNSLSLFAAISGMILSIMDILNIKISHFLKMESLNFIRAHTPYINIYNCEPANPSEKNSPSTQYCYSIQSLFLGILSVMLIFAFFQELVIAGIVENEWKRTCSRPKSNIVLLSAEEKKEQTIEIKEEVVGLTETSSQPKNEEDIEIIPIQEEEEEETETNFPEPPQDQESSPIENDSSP
Assay remarks: FACS KD on SB cells expressing CD20 (GMF against mAb concentration, nonlinear fit)
Experimental: The affinity of purified antibodies against CD20 (mAbs 1.1.2, 1.2.1, 2.1.2, 1.3.3, 1.5.3, 1.10.3.1, 1.13.2), Rituximab (positive control), and B1 was determined by FACS. Briefly, SB cells expressing CD20 were resuspended in FACS buffer (2% FBS, 0.05% NaN₃) at a concentration of approximately 5 million cells/mL. […] The Geometric Mean Fluorescence (GMF) of 10,000 cells for each mAb concentration was determined using a FACSCalibur instrument. […]
Response body: numeric value in nM, unit text excluded.

Let me know recorded Kd for mAb 1.2.1 (antibody, human IgG1, V domains shown, Human IgG1 kappa; also called 1.2.1.1; 50-001H1_2_1_1) VH: EVQLVQSGAEVKKPGESLKISCKGSGYSFTSYWIGWVRQMPGKGLEWMGIIYPGDSDTRYSPSFQGQVTISADKSISTAYLQWSSLKASDTAMYYCARLGDYYNYYGMDVWGQGTTVTVSS VL: DIVMTQTPLSSPVTLGQPASISCRSSQSLVHSDGKTYLSWLQQRPGQPPRLLIYKSSNRFSGVPDRFSGSGAGTDFTLKISRVEAEDVGVYYCVQATQFPITFGQGTRLEIK , thanks.
11.9

Let me know recorded Kd for mAb 1.10.3.1 (antibody, human IgG1, V domains shown, Human IgG1 kappa; also called 50-001H1_10_3_1) VH: EVQLVQSGAEVKKPGESLKISCKGSGYSFTSYWIGWVRQMPGKGLEWMGIIYPGDSDTRYSPSFQGQVTISADKSISTAYLQWSSLKASDTAMYYCARMGDFWSGYYTRGMDVWGQGTTVTVSS VL: EIVMTQSPATLSVSPGERATLSCRASQSVSSNLAWYQQKPGQAPRLLISGASTRATGIPARFSGSGSGTEFTLTISSLQSEDFAVYYCHQYNDWSLTFGGGTKVEIK , thanks.
11.2

Let me know recorded Kd for mAb 1.13.2 (antibody, human IgG1, V domains shown, Human IgG1 kappa; also called 1.13.1; 50-001H1_13_1) VH: EVQLVQSGAEVKKPGESLKISCKGSGYSFTNYWIGWVRQMPGKGLEWMGIIYPGDSDTRYSPSFQGQVTISADKSISTAYLQWSSLKASDTAMYYCARQGDYYHYSGMDVWGQGTTVTVSS VL: DVVMTQSPLSLSVTLGQPASISCRSSQSLVYNDGDTYLNWFQQRPGQSPRLLIYKVSNWDSGVPDRFSGSGSGTDFTLKVSRVEAEDVGVYYCMQGTHWPLTFGGGTKVEIK , thanks.
23.6

We next turn to a different binder, shown below.
Let me know recorded Kd for mAb 2.1.2 (ATCC Accession Number PTA-7328) (antibody, human IgG1, V domains shown, Human IgG1 kappa; also called 2.1.1; 50-001H2_1_1) VH: EVQLVQSGAEVKKPGESLKISCKGSGYSFTSYWIGWVRQMPGKGLEWMGIIYPGDSDTRYSPSFQGQVTISADKSISTAYLQWSSLKASDTAMYYCARQGDFWSGYGGMDVWGQGTTVTVSS VL: DIVMTQTPHSSPVTLGQPASISCRSSQSLVSRDGNTYLSWLQQRPGQPPRLLIYKISNRFSGVPNRFSGSGAGTDFTLKISRVKAEDVGVYYCMQATQFPLTFGQGTRLEIK , thanks.
3.8

Numbers sourced from patent US20070014720A1.
